# Tested on: male ICR-mice
# assay_details: Potentiation of sodium pentobarbital sleeping time test
# Type: in vivo
# run_parameters: oral, 5 mg/kg, 38 mg/kg sodium pentobarbital 60 min later
reported_property: Sleep prolonging rate (%)
Dear colleague, please return just the value in %, with no unit written.

Fill blank: measured Sleep prolonging rate (%) of the compound CCCOC[C@H]1O[C@@H](n2cnc3c(N[C@@H](CC)c4ccccc4)ncnc32)C(O)C1O (stereo partly shown) is ____.
4

Fill blank: measured Sleep prolonging rate (%) of the compound CC(=O)OC[C@H]1O[C@@H](n2cnc3c(NCc4ccc5c(c4)OCO5)ncnc32)C[C@H]1OC(C)=O is ____.
29

Fill blank: measured Sleep prolonging rate (%) of the compound CCCC(=O)Oc1ccc(CNc2ncnc3c2ncn3[C@@H]2O[C@H](CO)[C@@H](O)[C@H]2O)cc1OC is ____.
11

Fill blank: measured Sleep prolonging rate (%) of the compound OCC(CO)Nc1ncnc2c1ncn2[C@@H]1O[C@H](CO)C(O)C1O (stereo partly shown) [Example 129, N^6-[2-(1,3-dihydroxy)-propyl]-adenosine] is ____.
184
